Values were extracted from patent US6355799B1.

- Tested on: johnsongrass (Sorghum halepense, SORHA)
- ASSAY_DETAILS: Post-emerge test, greenhouse herbicide activity screening
- Assay type: in vivo
- EXPERIMENTAL_SETUP: post-emerge, 250 g ai/ha, 14 days after application, rating scale 0-100
MEASUREMENT_LABEL: SORHA phytotoxicity rating
Simply state the number, no unit and no words.

Inquiry: Which SORHA phytotoxicity rating value belongs to CCOC(=O)C(C)Oc1ccc(-n2c(=O)cc(C(F)(F)F)n(C)c2=O)c(NC(=O)c2ccc3ccccc3c2)c1 (stereo not shown) ?
Reply text: 0

Inquiry: Now the same for "COc1c(Cl)cc(F)c(-n2c(=O)cc(C(F)(F)F)n(C)c2=O)c1NC(=O)c1ccc2c(C#N)cccc2c1"
Reply text: 10

Inquiry: Next entry: "COc1cc2ccccc2cc1C(=O)Nc1c(OC)c(Cl)cc(F)c1-n1c(=O)cc(C(F)(F)F)n(C)c1=O"
Reply text: 40

Inquiry: Please give the result for "COc1c(Cl)cc(F)c(-n2c(=O)cc(C(F)(F)F)n(C)c2=O)c1NC(=O)c1ccc2c(Br)cccc2c1" too.
Reply text: 0

Inquiry: Same read-out for "COc1c(Cl)cc(F)c(-n2c(=O)cc(C(F)(F)F)n(C)c2=O)c1NC(=O)CSC(C)C" ?
Reply text: 0

Inquiry: "CCOC(=O)CSCC(=O)Nc1c(OC)c(Cl)cc(F)c1-n1c(=O)cc(C(F)(F)F)n(C)c1=O" ?
Reply text: 10

Inquiry: Do the same for "Cn1c(C(F)(F)F)cc(=O)n(-c2c(F)cc(Cl)cc2NC(=O)c2ccc3ccccc3c2)c1=O" please
Reply text: 10

Inquiry: Subsequent entry: "COc1c(Br)cc(F)c(-n2c(=O)cc(C(F)(F)F)n(C)c2=O)c1NC(=O)C=Cc1ccccc1"
Reply text: 40

Inquiry: Moving on to "Cn1c(C(F)(F)F)cc(=O)n(-c2ccc(C(F)(F)F)cc2NC(=O)c2ccc3ccccc3c2)c1=O"
Reply text: 0

Inquiry: Likewise for "COc1c(Cl)cc(F)c(-n2c(=O)cc(C(F)(F)F)n(C)c2=O)c1NC(=O)Cc1ccccc1" ?
Reply text: 0
